Consider compounds characterized by their Ki with Neuronal acetylcholine receptor subunit alpha-4 (Rattus norvegicus).
Sequence (P09483 whole entry): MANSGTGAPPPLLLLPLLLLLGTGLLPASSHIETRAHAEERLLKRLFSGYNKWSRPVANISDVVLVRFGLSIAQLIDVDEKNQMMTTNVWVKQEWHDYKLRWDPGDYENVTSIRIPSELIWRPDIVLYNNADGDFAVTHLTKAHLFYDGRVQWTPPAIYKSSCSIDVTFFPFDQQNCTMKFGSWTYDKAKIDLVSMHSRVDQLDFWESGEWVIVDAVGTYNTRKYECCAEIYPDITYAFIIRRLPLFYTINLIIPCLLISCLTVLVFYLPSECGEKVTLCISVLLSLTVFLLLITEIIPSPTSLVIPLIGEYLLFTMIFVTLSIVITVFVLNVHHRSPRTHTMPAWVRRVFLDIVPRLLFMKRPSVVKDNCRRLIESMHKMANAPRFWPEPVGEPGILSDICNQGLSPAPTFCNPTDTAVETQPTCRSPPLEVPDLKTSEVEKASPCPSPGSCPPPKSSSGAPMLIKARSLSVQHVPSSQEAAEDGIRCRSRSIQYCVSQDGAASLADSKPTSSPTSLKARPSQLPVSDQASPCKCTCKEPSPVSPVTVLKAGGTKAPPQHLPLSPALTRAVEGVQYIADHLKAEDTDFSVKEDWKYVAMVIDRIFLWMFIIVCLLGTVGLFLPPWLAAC
Give the quantity in nM, number only.

Examples with their reported Ki follow.
compound: Nc1cccc(-c2cc(C3CC4CCC3N4)cnc2F)c1 (racemic)
Ki (nM): 0.1
--
compound: COc1cccc(-c2cc(C3CC4CCC3N4)cnc2F)c1 (racemic)
Ki (nM): 0.12
--
compound: c1cncc(C2CC3CCC2N3)c1 (centres undefined)
Ki (nM): 0.02

Query compound follows.
Query block: Determine reported Ki for Fc1ncc(C2CC3CCC2N3)cc1-c1ccccc1 (centres undefined) ; test system: Neuronal acetylcholine receptor subunit alpha-4 (Rattus norvegicus).
Result block: 0.24
